B1: KIAA1161 (parent)
chain: FMPAMQFSIPPWRYDAEVVAIAQK

Variants of: B1
PROTOCOL_TEXT: protein stability index of a GFP-peptide fusion (GPS, HEK-293T) (PSI 1-6); higher = more stable;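 also: lentivirally expressed fusions sorted by FACS into six bins by GFP to DsRed ratio, PSI derived from sequencing read proportions per bin multiplied by bin number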
CONDITION_LABEL: c terminus: a fixed tail appended
Please enter YES where protein stability index is greater than or equal to 2, and NO where it is lower.

Check out these entries, answers already filled in.
Please check the record R13W and state if its protein stability index is at or above 2.
NO

Please check the record Q23G and state if its protein stability index is at or above 2.
NO

Please check the record Y14T and state if its protein stability index is at or above 2.
YES

Please check the record Y14S and state if its protein stability index is at or above 2.
YES

Please check the record M5P and state if its protein stability index is at or above 2.
YES

Please check the record W12N and state if its protein stability index is at or above 2.
YES

Please check the record Q23M and state if its protein stability index is at or above 2.
YES

Please check the record M5G and state if its protein stability index is at or above 2.
YES

New cases:
Please check the record M5D and state if its protein stability index is at or above 2.
NO

Please check the record I9F and state if its protein stability index is at or above 2.
YES
